# Test details: Cytotoxicity against human NCI-H460 cells assessed as decrease in cell viability after 72 hrs by MTT assay
# Assay type: functional, cell-based
# Study conditions: NCI-H460, 72 h
Recorded endpoint: pIC50
Give only the number. pIC50 is defined as minus log10 of concentration in molar units.

Prompt: Would you mind telling me what pIC50 value was observed for COC1=C(C)C(=O)C2=C(C1=O)[C@H]1[C@@H]3CC4=C(C(=O)C(OC)=C(C)C4=O)[C@H](COC(=O)/C=C/c4ccc([N+](=O)[O-])cc4)N3[C@@H](C#N)[C@H](C2)N1C ?
Response: 7.85

Prompt: Item under review: COC1=C(C)C(=O)C2=C(C1=O)[C@H]1[C@@H]3CC4=C(C(=O)C(OC)=C(C)C4=O)[C@H](COC(=O)/C=C/c4c(F)c(F)c(F)c(F)c4F)N3[C@@H](C#N)[C@H](C2)N1C . Reported pIC50?
Response: 7.16

Prompt: What does the record list as pIC50 for COC1=C(C)C(=O)C2=C(C1=O)[C@H]1[C@@H]3CC4=C(C(=O)C(OC)=C(C)C4=O)[C@H](COC(=O)c4ccc(F)cc4)N3[C@@H](C#N)[C@H](C2)N1C ?
Response: 7.66

Prompt: What value of pIC50 has been recorded for this entry: COC1=C(C)C(=O)C2=C(C1=O)[C@H]1[C@@H]3CC4=C(C(=O)C(OC)=C(C)C4=O)[C@H](COC(=O)c4ccccc4F)N3[C@@H](C#N)[C@H](C2)N1C
Response: 8.00

Prompt: Item under review: C/C=C(/C)C(=O)OC[C@H]1C2=C(C[C@H]3[C@H]4C5=C(C[C@@H]([C@H](C#N)N13)N4C)C(=O)C(C)=C(OC)C5=O)C(=O)C(C)=C(OC)C2=O . Reported pIC50?
Response: 8.08

Prompt: Data request, read-out pIC50, for COC1=C(C)C(=O)C2=C(C1=O)[C@H]1[C@@H]3CC4=C(C(=O)C(OC)=C(C)C4=O)[C@H](COC(=O)CC(F)(F)F)N3[C@@H](C#N)[C@H](C2)N1C
Response: 6.49

Prompt: Requested read-out: pIC50. Entry: COC1=C(C)C(=O)C2=C(C1=O)[C@H]1[C@@H]3CC4=C(C(=O)C(OC)=C(C)C4=O)[C@H](COC(=O)/C=C/c4ccccc4Cl)N3[C@@H](C#N)[C@H](C2)N1C
Response: 8.05

Prompt: Any idea what its pIC50 is? The compound is COC1=C(C)C(=O)C2=C(C1=O)[C@H]1[C@@H]3CC4=C(C(=O)C(OC)=C(C)C4=O)[C@H](COC(=O)c4ccc(C(F)(F)F)cc4)N3[C@@H](C#N)[C@H](C2)N1C
Response: 7.62

Prompt: Requested field: pIC50. Item: COC1=C(C)C(=O)C2=C(C1=O)[C@H]1[C@@H]3CC4=C(C(=O)C(OC)=C(C)C4=O)[C@H](CO)N3[C@@H](C#N)[C@H](C2)N1C
Response: 6.80

Prompt: May I ask what pIC50 has been recorded for COC1=C(C)C(=O)C2=C(C1=O)[C@H]1[C@@H]3CC4=C(C(=O)C(OC)=C(C)C4=O)[C@H](COC(=O)c4ccccn4)N3[C@@H](C#N)[C@H](C2)N1C ?
Response: 8.66

Prompt: Field request: pIC50 | item: COC1=C(C)C(=O)C2=C(C1=O)[C@H]1[C@@H]3CC4=C(C(=O)C(OC)=C(C)C4=O)[C@H](COC(=O)c4ccccc4C(F)(F)F)N3[C@@H](C#N)[C@H](C2)N1C
Response: 7.66

The reported numbers originate from ChEMBL document CHEMBL3867436.
